# Tested On: ATPase family AAA domain-containing protein 2 (Homo sapiens, UniProt Q6PL18)
# Sequence (Q6PL18 whole entry, the tested form may be a part): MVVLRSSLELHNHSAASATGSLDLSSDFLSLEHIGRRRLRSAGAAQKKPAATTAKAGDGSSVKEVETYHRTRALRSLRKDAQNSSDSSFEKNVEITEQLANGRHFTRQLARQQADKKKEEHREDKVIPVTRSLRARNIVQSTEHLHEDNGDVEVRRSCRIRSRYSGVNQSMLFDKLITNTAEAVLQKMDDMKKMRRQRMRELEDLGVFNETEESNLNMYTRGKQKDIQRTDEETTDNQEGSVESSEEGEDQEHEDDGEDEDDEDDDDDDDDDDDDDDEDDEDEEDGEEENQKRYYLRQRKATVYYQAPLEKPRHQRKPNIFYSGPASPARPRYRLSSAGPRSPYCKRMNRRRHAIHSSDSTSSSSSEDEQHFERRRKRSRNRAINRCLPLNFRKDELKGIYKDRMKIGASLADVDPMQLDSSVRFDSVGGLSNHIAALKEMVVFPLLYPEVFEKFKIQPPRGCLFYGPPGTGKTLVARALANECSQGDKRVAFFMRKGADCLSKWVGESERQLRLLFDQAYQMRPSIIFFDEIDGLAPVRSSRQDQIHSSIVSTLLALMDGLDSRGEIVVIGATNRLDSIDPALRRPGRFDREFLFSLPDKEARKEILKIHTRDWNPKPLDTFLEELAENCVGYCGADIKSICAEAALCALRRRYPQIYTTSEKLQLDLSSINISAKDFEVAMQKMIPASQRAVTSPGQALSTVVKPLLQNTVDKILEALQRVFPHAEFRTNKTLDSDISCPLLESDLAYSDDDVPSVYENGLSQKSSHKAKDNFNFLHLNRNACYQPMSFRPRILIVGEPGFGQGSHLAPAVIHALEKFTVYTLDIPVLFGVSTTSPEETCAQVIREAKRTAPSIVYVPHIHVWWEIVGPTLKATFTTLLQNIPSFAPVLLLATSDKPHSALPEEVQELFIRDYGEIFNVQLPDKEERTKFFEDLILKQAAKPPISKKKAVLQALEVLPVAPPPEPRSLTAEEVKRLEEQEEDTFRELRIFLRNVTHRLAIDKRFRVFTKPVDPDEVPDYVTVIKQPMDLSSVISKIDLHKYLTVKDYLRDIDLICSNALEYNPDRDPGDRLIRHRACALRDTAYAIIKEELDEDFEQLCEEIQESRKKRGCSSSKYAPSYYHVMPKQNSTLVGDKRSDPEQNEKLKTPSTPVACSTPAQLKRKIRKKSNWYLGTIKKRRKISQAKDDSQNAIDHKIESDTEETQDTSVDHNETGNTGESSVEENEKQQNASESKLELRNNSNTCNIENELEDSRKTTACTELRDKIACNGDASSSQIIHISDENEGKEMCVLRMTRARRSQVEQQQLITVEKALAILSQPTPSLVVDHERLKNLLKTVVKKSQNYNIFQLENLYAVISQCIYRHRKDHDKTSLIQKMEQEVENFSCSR
# Procedure Summary: Binding affinity to human partial length ATAD2A (Q981 to R1108 residues) expressed in bacterial expression system by BROMOscan assay
Endpoint Label: Kd

Input: Fill in reported Kd for this entry: COc1cc2c(cc1-c1c(C)noc1C)[nH]c1nc(C)nc(-c3ccnc4ccccc34)c12
Output: > 4 µM

* * *

# Tested On: Bromodomain-containing protein 1 (Homo sapiens, UniProt O95696)
# Sequence (O95696 whole entry): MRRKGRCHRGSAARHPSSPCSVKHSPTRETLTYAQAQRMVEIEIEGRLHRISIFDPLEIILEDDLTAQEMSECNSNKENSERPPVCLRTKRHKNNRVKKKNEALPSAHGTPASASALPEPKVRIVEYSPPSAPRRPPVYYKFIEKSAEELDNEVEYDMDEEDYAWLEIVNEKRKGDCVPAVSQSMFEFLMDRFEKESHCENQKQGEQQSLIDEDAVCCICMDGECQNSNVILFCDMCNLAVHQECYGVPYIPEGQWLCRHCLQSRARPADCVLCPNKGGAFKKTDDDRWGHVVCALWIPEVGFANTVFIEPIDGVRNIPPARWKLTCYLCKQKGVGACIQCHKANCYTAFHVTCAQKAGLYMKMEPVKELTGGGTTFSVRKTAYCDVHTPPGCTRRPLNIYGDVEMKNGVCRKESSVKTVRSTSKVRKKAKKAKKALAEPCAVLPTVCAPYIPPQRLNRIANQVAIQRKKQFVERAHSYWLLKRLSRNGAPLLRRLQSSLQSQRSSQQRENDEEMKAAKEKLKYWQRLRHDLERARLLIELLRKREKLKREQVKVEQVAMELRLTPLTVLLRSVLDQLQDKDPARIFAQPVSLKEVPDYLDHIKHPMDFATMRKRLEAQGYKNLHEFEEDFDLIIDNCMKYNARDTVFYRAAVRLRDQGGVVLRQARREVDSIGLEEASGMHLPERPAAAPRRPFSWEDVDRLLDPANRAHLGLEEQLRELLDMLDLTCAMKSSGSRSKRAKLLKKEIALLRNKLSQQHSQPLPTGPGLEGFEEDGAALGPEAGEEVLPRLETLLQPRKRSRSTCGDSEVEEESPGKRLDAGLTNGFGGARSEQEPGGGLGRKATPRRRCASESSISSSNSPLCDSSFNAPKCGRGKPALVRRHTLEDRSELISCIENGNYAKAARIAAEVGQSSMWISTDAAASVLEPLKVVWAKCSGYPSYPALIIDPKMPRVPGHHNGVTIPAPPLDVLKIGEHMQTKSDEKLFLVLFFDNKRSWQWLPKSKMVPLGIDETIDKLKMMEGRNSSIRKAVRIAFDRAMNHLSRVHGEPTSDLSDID
# Procedure Summary: Binding affinity to human partial length BRD1 (E556 to A688 residues) expressed in bacterial expression system by BROMOscan assay
pKd: −log10 of the molar value.
Endpoint Label: pKd

Input: Fill in reported pKd for this entry: COc1cc2c(cc1-c1c(C)noc1C)[nH]c1nc(C)nc(-c3ccnc4ccccc34)c12
Output: < 5.40

* * *

# Tested On: Bromodomain-containing protein 4 (Homo sapiens)
# Procedure Summary: Inhibition of FAM-labeled ZBA248 binding to recombinant human N-terminal His6-tagged BRD4 bromodomain 1 (44 to 168 residues) expressed in Rosetta2 DE3 cells after 30 mins by Flourescence polarization assay
# Assay type: biochemical
For each record, write down the corresponding IC50.
Your reply should be a number followed by the unit it is expressed in.

Input: Quote IC50 reported for COc1cc2c(cc1-c1c(C)noc1C)[nH]c1nc(C)nc(-c3ccnc4ccccc34)c12 please.
Output: 0.0282 µM

Input: Answer with reported IC50 of COc1cc2c(cc1-c1c(C)noc1C)[nH]c1nc(C)nc(-c3cccc4ncccc34)c12
Output: 0.0309 µM

Input: Given COc1cc2c(cc1-c1c(C)noc1C)[nH]c1ncnc(-c3ccoc3)c12 , respond with its IC50.
Output: 0.155 µM

Input: Indicate its recorded IC50; the molecule in question is COc1cc2c(cc1-c1c(C)noc1C)[nH]c1nc(C)nc(-c3cccc4cnccc34)c12
Output: 0.451 µM

Input: Please look at this molecule and report its IC50: COc1cc2c(cc1-c1c(C)noc1C)[nH]c1nc(C)nc(-c3cnc4ccccc4c3)c12
Output: 0.397 µM
